# procedure_summary: Half life in CD-1 mouse at 3 mg/kg, po administered as single dose via gavage by HPLC-MS/MS
# Format: ADME, organism-based
# conditions: in vivo
readout_name: half-life (h)

>>> reported_measurement("c1cnc2cc3c(cc2n1)[C@@H]1CNC[C@H]3C1")
1.4

* * *

# procedure_summary: Plasma concentration in Balb-C mouse at 2 mg/kg, iv administered as bolus dose measured after 2.2 mins by LC-MS analysis
# Assay type: ADME, organism-based
readout_name: concentration at 132 s

>>> reported_measurement("N#C/N=C(/NCc1cccnc1)NCC12CC3CC(CC(C3)C1)C2")
"687 ng/mL"

* * *

# procedure_summary: Tmax in Balb-C mouse at 1 mg/kg, iv administered as bolus dose by LC-MS method
# Assay type: ADME, organism-based
# conditions: in vivo
readout_name: Tmax

>>> reported_measurement("N#C/N=C(/NCc1cccnc1)NCC12CC3CC(CC(C3)C1)C2")
"20 to 30 min"

* * *

# procedure_summary: Plasma concentration in Balb-C mouse at 2 mg/kg, iv administered as bolus dose measured after 76 mins by LC-MS analysis
# Type: ADME, organism-based
readout_name: concentration at 76 min (ng/mL)

>>> reported_measurement("N#C/N=C(/NCc1cccnc1)NCC12CC3CC(CC(C3)C1)C2")
12

* * *

# procedure_summary: Plasma concentration in Balb-C mouse at 10 mg/kg, po measured after 33 mins by LC-MS analysis
# Assay type: ADME, organism-based
readout_name: concentration at 0.55 h (ng/mL)

>>> reported_measurement("N#C/N=C(/NCc1cccnc1)NCC12CC3CC(CC(C3)C1)C2")
23

* * *

# procedure_summary: MRT (0 to infinity) in Balb-C mouse at 2 mg/kg, iv administered as bolus dose by LC-MS method
# Format: ADME, organism-based
# conditions: in vivo
readout_name: MRT inf (min)

>>> reported_measurement("N#C/N=C(/NCc1cccnc1)NCC12CC3CC(CC(C3)C1)C2")
18.6

* * *

# procedure_summary: Plasma concentration in Balb-C mouse at 2 mg/kg, iv administered as bolus dose measured after 39 mins by LC-MS analysis
# Type: ADME, organism-based
readout_name: concentration at 0.65 h

>>> reported_measurement("N#C/N=C(/NCc1cccnc1)NCC12CC3CC(CC(C3)C1)C2")
"160 ng/mL"

* * *

# procedure_summary: Plasma concentration in Balb-C mouse at 2 mg/kg, iv administered as bolus dose measured after 5.8 mins by LC-MS analysis
# Assay type: ADME, organism-based
readout_name: concentration at 348 s

>>> reported_measurement("N#C/N=C(/NCc1cccnc1)NCC12CC3CC(CC(C3)C1)C2")
"0.523 µg/mL"

* * *

# experimental_system: P2X purinoceptor 7 (Homo sapiens)
# procedure_summary: Ratio of IC50 for P2X7 receptor in human THP1 cells assessed as inhibition of BzATP-induced YO-PRO-1 Iodide uptake to IC50 for P2X7 receptor in LPS-stimulated human THP1 cells assessed as inhibition of LPS/BzATP-induced IL-1beta release
# Assay type: cell-based
readout_name: Ratio IC50

>>> reported_measurement("N#C/N=C(/NCc1ccccn1)NCC12CC3CC(CC(C3)C1)C2")
1.7
>>> reported_measurement("N#C/N=C(\\NCC12CC3CC(CC(C3)C1)C2)Nc1cccc2ncccc12")
9
>>> reported_measurement("N#C/N=C(/NCc1ccccc1)NCC12CC3CC(CC(C3)C1)C2")
5.2
>>> reported_measurement("N#C/N=C(/NCc1cccc(F)c1)NCC12CC3CC(CC(C3)C1)C2")
5.4
>>> reported_measurement("N#C/N=C(/NCc1ccncc1)NCC12CC3CC(CC(C3)C1)C2")
1.2
>>> reported_measurement("N#C/N=C(/NCc1cccnc1)NCC12CC3CC(CC(C3)C1)C2")
1.7
